Consider the following compounds; for each one, report its inhibition at 0.1 µM.
- System: ZR-75-1-Zellen
- experiment: Inhibition of RNA synthesis in isolated human mammary tumour cells (incorporation of labelled uridine)
- Format: cell-based
- experimental parameters: Homo sapiens, ZR-75-1, 48 h; read-out: Prozentuale Hemmung der RNS-Synthese
Give the number; % is assumed, so skip it.

Reported inhibition at 0.1 µM for CC/C(=C(/c1ccc(OCCN(C)C)cc1)c1cccc(O)c1)c1ccc(Cl)cc1 [Verbindung 5] : what is it?
41

What do we get for CC/C(=C(/c1ccc(OCCN(CC)CC)cc1)c1cccc(O)c1)c1ccc(OC)cc1 [Verbindung 7] ?
4

What do we get for CC/C(=C(/c1ccc(OCCN(C)C)cc1)c1cccc(O)c1)c1cccc(C)c1 [Verbindung 1] ?
47

What do we get for CC/C(=C(/c1ccc(OCCN(C)C)cc1)c1cccc(O)c1)c1cccc(O)c1 [Verbindung 4] ?
33

What do we get for CC/C(=C(/c1ccc(OCCN(C)C)cc1)c1cccc(O)c1)c1ccc(OC)cc1 [Verbindung 3] ?
36

What do we get for CC/C(=C(/c1ccc(OCCN(C)C)cc1)c1cccc(O)c1)c1ccc(Br)cc1 [Verbindung 6] ?
47

What do we get for CC/C(=C(/c1ccc(OCCN(C)C)cc1)c1cccc(O)c1)c1ccc(C)cc1 [Verbindung 2] ?
42
